target: MTHFD2 recombinant human enzyme (Homo sapiens); test: MTHFD2 inhibition assay (NAD(P)H-Glo luminescence); conditions: selectivity of MTHFD2 inhibition over MTHFD1, band
measured-quantity: MTHFD1/MTHFD2 IC50 ratio

1. COC[C@H]1CN(c2cc(C)c3c4c(c(=O)oc3c2C)CN(C(=O)c2cc(N)c(C(=O)NS(=O)(=O)N3CCCC3)cc2F)CC4)CCN1C [Example 196]    J (>30)
2. COC[C@H]1CN(c2ccc3c4c(c(=O)oc3c2C)CN(C(=O)c2cc(N(C)C)c(C(=O)NS(=O)(=O)N3CCC5(CC3)CC5)cc2Cl)CC4)CCN1C [Example 190]    H (>9.0 to 30)
3. COC[C@H]1CN(c2cc(C)c3c4c(c(=O)oc3c2C)CN(C(=O)c2ccc(C(=O)NS(=O)(=O)N3CCCC3)c(N3CC5CCC3C5)c2)CC4)CCN1C (stereo partly shown) [Example 115]    F (<3)
4. COC[C@H]1CN(c2cc(C)c3c4c(c(=O)oc3c2C)CN(C(=O)c2ccc(C(=O)NS(=O)(=O)C3(C)CC3)c(N(C)C)c2F)CC4)CCN1C [Example 136]    H (>9.0 to 30)
5. [2H]C([2H])([2H])Oc1cc(C(=O)N2CCc3c(c(=O)oc4c(C)c(N5CCN(C)[C@@H](COC)C5)cc(C)c34)C2)c(F)cc1C(=O)NS(=O)(=O)N1CC2CC2C1 (stereo partly shown) [Example 251]    J (>30)
6. CCOc1cc(C(=O)N2CCc3c(c(=O)oc4c(C)c(N5CCN(C)[C@@H](COC)C5)cc(C)c34)C2)ccc1C(=O)NS(=O)(=O)N1C2CCC1CC2 [Example 227]    H (>9.0 to 30)
7. COC[C@H]1CN(c2cc(C)c3c4c(c(=O)oc3c2C)CN(C(=O)c2ccc(C(=O)NS(=O)(=O)C3(C)CC3)c(N3CCCC(F)(F)C3)c2)CC4)CCN1C [Example 75]    G (^ 3 to 9.0)
8. COC[C@H]1CN(c2cc(C)c3c4c(c(=O)oc3c2C)CN(C(=O)c2ccc(C(=O)NS(=O)(=O)N(C)C)c(N3CCC[C@H]3C)c2)CC4)CCN1C [Example 102]    F (<3)
9. COC[C@H]1CN(c2ccc3c4c(c(=O)oc3c2)CN(C(=O)c2cc(N(C)C)c(C(=O)NS(=O)(=O)N3C5CCC3CC5)cc2F)CC4)CCN1C [Example 191]    G (^ 3 to 9.0)
10. COC[C@H]1CN(c2cc(C)c3c4c(c(=O)oc3c2C)CN(C(=O)c2cc(N(C)C)c(C(=O)NS(=O)(=O)N3CCC[C@H]3C(F)(F)F)cc2F)CC4)CCN1C [Example 292]    J (>30)
11. COC[C@H]1CN(c2cc(C)c3c4c(c(=O)oc3c2C)CN(C(=O)c2ccc(C(=O)NS(=O)(=O)N(C)C)c(O[C@H]3C[C@@H]5C[C@@H]5C3)c2F)CC4)CCN1C [Example 67]    F (<3)
12. COC[C@H]1CN(c2cc(C)c3c4c(c(=O)oc3c2C)CN(C(=O)c2cc(N3CCCC3)c(C(=O)NS(=O)(=O)C3(C)CC3)cc2F)CC4)CCN1C [Example 142]    G (^ 3 to 9.0)
13. COC[C@H]1CN(c2cc(C)c3c4c(c(=O)oc3c2C)CN(C(=O)c2ccc(C(=O)NS(=O)(=O)N(C)C3CCCC3)cc2F)CC4)CCN1C [Example 199]    H (>9.0 to 30)
14. COC[C@H]1CN(c2ccc3c4c(c(=O)oc3c2C)CN(C(=O)c2ccc(C(=O)NS(=O)(=O)N3CCCC3)c(O[C@@H]3C[C@@H]5C[C@@H]5C3)c2F)CC4)CCN1C [Example 63]    F (<3)
15. COC[C@H]1CN(c2cc(C)c3c4c(c(=O)oc3c2C)CN(C(=O)c2ccc(C(=O)NS(=O)(=O)N(C)C)c(N3CCCC5(CC5)C3)c2)CC4)CCN1C [Example 120]    F (<3)
16. COC[C@H]1CN(c2cc(Cl)c3c4c(c(=O)oc3c2C)CN(C(=O)c2cc(N(C)C)c(C(=O)NS(=O)(=O)N3CC[C@@H](OC)C3)cc2F)CC4)CCN1C [Example 285]    H (>9.0 to 30)
17. COC[C@H]1CN(c2cc(C)c3c4c(c(=O)oc3c2C)CN(C(=O)c2cc(F)c(C(=O)NS(=O)(=O)N3CCCC3)cc2N(C)C)CC4)CCN1C [Example 243]    J (>30)
18. COC[C@H]1CN(c2ccc3c4c(c(=O)oc3c2Cl)CN(C(=O)c2ccc(C(=O)NS(=O)(=O)C3(C)CC3)c(O[C@@H]3C[C@@H]5C[C@@H]5C3)c2F)CC4)CCN1C [Example 60]    F (<3)
19. COC[C@H]1CN(c2ccc3c4c(c(=O)oc3c2C)CN(C(=O)c2cc(Cl)c(C(=O)NS(=O)(=O)N(C)C)c(N3C5CCC3CC5)c2)CC4)CCN1C [Example 80]    G (^ 3 to 9.0)
20. COC[C@H]1CN(c2ccc3c4c(c(=O)oc3c2C)CN(C(=O)c2ccc(C(=O)NS(=O)(=O)C3(C)CC3)c(OC3CCC3)c2)CC4)CCN1C [Example 7]    F (<3)
21. COC[C@H]1CN(c2cc(C)c3c4c(c(=O)oc3c2)CN(C(=O)c2ccc(C(=O)NS(=O)(=O)N3CCCC3)c(OC3CCC3)c2F)CC4)CCN1C [Example 186]    F (<3)
22. COC[C@H]1CN(c2cc(C)c3c4c(c(=O)oc3c2C)CN(C(=O)c2cc(OC3CCC3)c(C(=O)NS(=O)(=O)C3(C)CC3)c(C(F)(F)F)c2)CC4)CCN1C [Example 130]    J (>30)

---

biological target: MTHFD2 recombinant human enzyme (Homo sapiens, UniProt P13995); experiment: MTHFD2 inhibition assay (NAD(P)H-Glo luminescence)
Sequence (P13995 36-350): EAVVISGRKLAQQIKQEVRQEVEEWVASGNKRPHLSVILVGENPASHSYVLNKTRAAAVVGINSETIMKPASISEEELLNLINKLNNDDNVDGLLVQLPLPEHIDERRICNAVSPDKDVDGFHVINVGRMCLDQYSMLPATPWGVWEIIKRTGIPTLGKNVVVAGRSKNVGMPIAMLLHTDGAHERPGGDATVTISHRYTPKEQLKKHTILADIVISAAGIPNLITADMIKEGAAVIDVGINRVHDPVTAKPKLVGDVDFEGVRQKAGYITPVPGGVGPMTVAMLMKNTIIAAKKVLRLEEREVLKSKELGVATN
pIC50: −log10 of the molar value.
measured-quantity: pIC50

1) COC[C@H]1CN(c2cc(C)c3c4c(c(=O)oc3c2C)CN(C(=O)c2cc(OC3CCC3)c(C(=O)NS(=O)(=O)N3CCCC3)c(C(F)(F)F)c2)CC4)CCN1C [Example 132]    7.00 to 8.00
2) CCOc1c(C(=O)NS(=O)(=O)N2C3CCCC2CC3)ccc(C(=O)N2CCc3c(c(=O)oc4c(C)c(N5CCN(C)[C@@H](COC)C5)cc(C)c34)C2)c1F [Example 234]    7.00 to 8.00
3) COC[C@H]1CN(c2cc(Cl)c3c4c(c(=O)oc3c2C)CN(C(=O)c2cc(F)c(C(=O)NS(=O)(=O)N3CCCC3)cc2C)CC4)CCN1C [Example 310]    7.00 to 8.00
4) COC[C@H]1CN(c2cc(Cl)c3c4c(c(=O)oc3c2C)CN(C(=O)c2cc(N(C)C)c(C(=O)NS(=O)(=O)N3CCC[C@H]3C(F)(F)F)cc2F)CC4)CCN1C [Example 295]    7.00 to 8.00
5) COC[C@H]1CN(c2ccc3c4c(c(=O)oc3c2C)CN(C(=O)c2ccc(C(=O)NS(=O)(=O)N3CCCC3)c(O[C@@H]3C[C@@H]5C[C@@H]5C3)c2F)CC4)CCN1C [Example 63]    8.00 to 9.00
6) COC[C@H]1CN(c2cc(C)c3c4c(c(=O)oc3c2C)CN(C(=O)c2ccc(C(=O)NS(=O)(=O)N(C)C)c(N(C)C3CCC3)c2F)CC4)CCN1C [Example 39]    8.00 to 9.00
7) COC[C@H]1CN(c2cc(C)c3c4c(c(=O)oc3c2C)CN(C(=O)c2ccc(C(=O)NS(=O)(=O)C3(C)CC3)c(N(C)C3CCC3)c2F)CC4)CCN1C [Example 38]    8.00 to 9.00
8) COC[C@H]1CN(c2cc(C)c3c4c(c(=O)oc3c2C)CN(C(=O)c2ccc(C(=O)NS(=O)(=O)N(C)C(C)C)c(O[C@@H]3C[C@@H]5C[C@@H]5C3)c2F)CC4)CCN1C [Example 36]    8.00 to 9.00
9) COC[C@H]1CN(c2cc(C)c3c4c(c(=O)oc3c2C)CN(C(=O)c2ccc(C(=O)NS(=O)(=O)N3CCCC3)c(O[C@@H]3C[C@@H]5C[C@@H]5C3)c2F)CC4)CCN1C [Example 35]    8.00 to 9.00
10) COC[C@H]1CN(c2cc(C)c3c4c(c(=O)oc3c2C)CN(C(=O)c2ccc(C(=O)NS(=O)(=O)N(C)C)c(N(C)C3CC3)c2)CC4)CCN1C [Example 84]    8.00 to 9.00
11) COC[C@H]1CN(c2cc(C)c3c4c(c(=O)oc3c2C)CN(C(=O)c2ccc(C(=O)NS(=O)(=O)N3CCCC3)c(OC3CCC3)c2F)CC4)CCN1C [Example 3]    7.00 to 8.00
